// data source = PubChem BioAssay (NCI)

Readings of TGI for the listed molecules
System: SK-OV-3 ovarian
Experiment: NCI tumour cell line growth inhibition, 48 h
Measurement Type: TGI

> print(dat)
                                    molecule     study.target  measurement.type  readout.value
 1  CC(=O)Oc1ccc2c(c1OC(C)=O)CCC1C2=CC[C@]2(C)C(=O)CCC12 (stereo partly drawn)  SK-OV-3 ovarian               TGI        87.4 µM
 2  CCCCCC(/C=N/Nc1ccccc1)C(O)(C(F)(F)F)C(F)(F)F (stereo not drawn)  SK-OV-3 ovarian               TGI       > 100 µM
 3  Cn1cc(NC(=O)c2cc(NC(=O)c3cc(NC=O)cn3C)cn2C)cc1C(=O)NCCC(=N)N  SK-OV-3 ovarian               TGI       > 100 µM
 4  Cc1cc(OCc2n[nH]c(=S)n2/N=C/c2ccc(F)cc2)ccc1Cl  SK-OV-3 ovarian               TGI        82.3 µM
 5      O=C1CNc2cc(N3CCN(c4ccccc4)CC3)ccc2N1  SK-OV-3 ovarian               TGI       > 100 µM
 6  Cc1cc(C)c(CNC(=O)c2cc(-c3ccc(CN4CCOCC4)cc3)cc3c2cnn3C2CCCC2)c(=O)[nH]1  SK-OV-3 ovarian               TGI        44.5 µM
 7  Cc1[nH]c2c(C)cccc2c1C1Cc2ccccc2N1 (stereo not drawn)  SK-OV-3 ovarian               TGI       > 100 µM
 8  COc1cccc2c1C(=O)c1c(O)c3c(c(O)c1C2=O)CC(O)(C(O)CO)CC3OC1CC2C(OC3COCC(C#N)N32)C(C)O1 (stereo not drawn)  SK-OV-3 ovarian               TGI      0.0727 µM
 9  O=C1C[C@H](Sc2ccccc2)C2(OCCO2)[C@H]2ON3CCC[C@@H]3[C@@H]12  SK-OV-3 ovarian               TGI        11.4 µM
10                      CCN(CC)c1ccc(N=O)cc1  SK-OV-3 ovarian               TGI        29.3 µM
11  O=C(Nc1cccc(C(F)(F)F)c1)C(=O)C(C(=O)c1ccc2ccccc2c1)C1OC(=O)c2ccccc21 (stereo not drawn)  SK-OV-3 ovarian               TGI       > 100 µM
12  O=c1c2sc3nc(NCCN4CCCCC4)ncc3c2ncn1-c1ccccc1  SK-OV-3 ovarian               TGI       > 100 µM
13  O=S(=O)(O)c1ccc(N=Nc2ccc(N=Nc3c(O)ccc4cc(S(=O)(=O)O)ccc34)cc2)cc1  SK-OV-3 ovarian               TGI       > 100 µM
14  N#CC(C#N)=C/C=C(\Sc1ccc(F)c(Cl)c1)c1ccc(Cl)cc1  SK-OV-3 ovarian               TGI      > 41.1 µM
15  CCc1cccc(C(C)C)c1NC(=O)C(=O)C1C(=O)NC(=O)NC1=O  SK-OV-3 ovarian               TGI       > 100 µM
16  CCN1C/C(=C\c2cc(OC)c(OC)c(OC)c2)C2=NN(c3ccccc3)C(c3cc(OC)c(OC)c(OC)c3)C2C1 (stereo not drawn)  SK-OV-3 ovarian               TGI        6.38 µM
17  Cn1c(-c2ccc(/C=N/N=C/c3ccc(-c4c[n+]5ccccc5n4C)cc3)cc2)c[n+]2ccccc12  SK-OV-3 ovarian               TGI       > 100 µM
18  CC(=O)Nc1cc(C(=O)Nc2cc(C(=O)Nc3cc(C(=O)Nc4cc(C(=O)Nc5cc(C(=O)NCCC(=O)NCCCN(C)C)n(C)c5)n(C)c4)n(C)c3)n(C)c2)n(C)c1  SK-OV-3 ovarian               TGI       > 100 µM
19  CC1(C)CCC(S(=O)(=O)c2ccc3c(c2)/C(=N\O)c2cc(S(=O)(=O)N4CCN(c5ccc(F)cc5O)CC4)ccc2-3)CC1  SK-OV-3 ovarian               TGI        0.24 µM
20              N#CCCC1(CCC#N)CCc2ccccc2C1=O  SK-OV-3 ovarian               TGI       > 100 µM
21  CC[C@H]1C[C@@H](O)[C@@H]2[C@H](O)[C@H](O)CN2C1  SK-OV-3 ovarian               TGI       > 100 µM
22         CC(C)(C)c1ccc(O)c(C[N+](C)(C)C)c1  SK-OV-3 ovarian               TGI       > 100 µM
23         Cc1ccc2nc(C=Nc3ccccc3Cl)cc(C)c2c1  SK-OV-3 ovarian               TGI       > 100 µM
24  COc1nc(-c2cn(S(=O)(=O)c3ccc(C)cc3)c3ccc(Br)cc23)cc(C(F)(F)F)c1C#N  SK-OV-3 ovarian               TGI        59.5 µM
25  O=C1/C(=C\c2ccc(Br)cc2)CN(C(=O)c2ccccc2F)C/C1=C\c1ccc(Br)cc1  SK-OV-3 ovarian               TGI        5.71 µM
26  C=C(C)[C@@H]1CC[C@]2(COC(C)=O)CC[C@]3(C)[C@H](CC[C@@H]4[C@@]5(C)CC[C@H](OC(C)=O)C(C)(C)[C@@H]5CC[C@]43C)[C@@H]12  SK-OV-3 ovarian               TGI        > 50 µM
27  COc1cc(/C=C2\CC3C4CCC5=CC(=O)CC[C@]5(C)C4CC[C@]3(C)C2=O)ccc1OCCCn1ccnc1 (stereo partly drawn)  SK-OV-3 ovarian               TGI        30.2 µM
28  CCOC(=O)c1ccc2c(c1)c1c(C)c3ccncc3c(C)c1n2C  SK-OV-3 ovarian               TGI        2.99 µM
29  CC(C)(C)c1[nH]nc2c1C(c1cc3ccccc3[nH]c1=O)Nc1cc(C(=O)Nc3ccc(Cl)cc3)ccc1N2 (stereo not drawn)  SK-OV-3 ovarian               TGI        8.01 µM
30           COc1cc(/C=N/N=C(\N)NO)cc(Cl)c1O  SK-OV-3 ovarian               TGI       > 100 µM
31  c1ccc(N=C2SC(c3ccccc3)(c3ccccc3)c3ccccc32)cc1  SK-OV-3 ovarian               TGI       > 100 µM
32    Cc1cc2c(c(C(N)=O)c1C)-c1cccc(Cl)c1C2=O  SK-OV-3 ovarian               TGI       > 100 µM
33  C[C@H](CCC(=O)NN)[C@H]1CC[C@H]2[C@@H]3CC[C@@H]4C[C@H](O)CC[C@]4(C)[C@H]3CC[C@]12C  SK-OV-3 ovarian               TGI       > 100 µM
